The measured values listed here are drawn from the supplement of paper PMC7125110.

B1: glmS ribozyme (parent)
chain: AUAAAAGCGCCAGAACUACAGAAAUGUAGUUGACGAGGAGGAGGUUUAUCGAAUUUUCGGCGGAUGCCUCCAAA

# Variants of: B1
# method-notes: self-cleavage kobs at 2500 uM GlcN6P; higher = faster cleavage; RNA array
# conditions-used: with glucosamine-6-phosphate
Fewer inactive variants are shown than the library holds.
experimental-readout: self-cleavage kobs at 2500 uM GlcN6P (s⁻¹)
Dear colleague, please return just the value in s⁻¹, with no unit written.

Worked examples follow.
mutation	reading-unit	numeric-result
U30G A42U C67G	s⁻¹	0.000107
C16U G41C	s⁻¹	0.000244
A39U U56C C67G	s⁻¹	3.66e-05
U31G A39U A64C	s⁻¹	6.17e-05
G32C G37U C70G	s⁻¹	9.68e-05
A15U C50G	s⁻¹	7.94e-05
A14C U30G A42G A53C	s⁻¹	7.92e-05
U65G C70A	s⁻¹	0.000183

Would you mind telling me what self-cleavage kobs at 2500 uM GlcN6P value was observed for G37A U54C C70U ? 0.00117

Would you mind telling me what self-cleavage kobs at 2500 uM GlcN6P value was observed for C11A A64G ? 0.000135

Would you mind telling me what self-cleavage kobs at 2500 uM GlcN6P value was observed for C16U A39U U46C A64G C71G ? 9.88e-05
